molecular target: recombinant Vps34 (Homo sapiens); assay: Phosphorylation of phosphatidylinositol (PI) by Vps34 in vitro, ADP detected by TR-FRET (HTRF Transcreener ADP); conditions: 10 μM ATP, 55 μg/ml PI, approximately 3 nM Vps34, 1 hour at ambient temperature; absolute IC50, mean of two independent experiments; read-out: IC50 activity range
pIC50: −log10 of the molar value.
Measurement kind: pIC50

Solved entries:
| Compound structure string | pIC50 |
| --- | --- |
| C[C@@H]1COCCN1c1cc(=O)n2c(n1)N(CC(=O)c1cccnc1)[C@](C)(C(F)(F)F)C2 | > 8.00 |
| C[C@@H]1COCCN1c1cc(=O)n2c(n1)N(c1cccc(F)c1)[C@H](C(F)(F)F)CC2 | > 8.00 |

In: Entry under review: "COCCN1c2nc(N3CCOC[C@H]3C)cc(=O)n2CC[C@H]1C(F)(F)F" . Reported pIC50?
Out: > 8.00

In: Entry under review: "C[C@@H]1COCCN1c1cc(=O)n2c(n1)N(Cc1cnco1)CC[C@@H]2C(F)(F)F" . Reported pIC50?
Out: 7.00 to 8.00

* * *

molecular target: recombinant Vps34 (Homo sapiens); test: Phosphorylation of phosphatidylinositol (PI) by Vps34 in vitro, ADP detected by TR-FRET (HTRF Transcreener ADP); conditions: 10 μM ATP, 55 μg/ml PI, approximately 3 nM Vps34, 1 hour at ambient temperature; absolute IC50, mean of two independent experiments; read-out: IC50 activity range
pIC50: −log10 of the molar value.
Measurement kind: pIC50

Solved entries:
| Compound | pIC50 |
| --- | --- |
| CC(C)C(=O)CN1c2nc(N3CCOC[C@H]3C)c(F)c(=O)n2CC[C@H]1C(F)(F)F | > 8.00 |
| C[C@@H]1COCCN1c1cc(=O)n2c(n1)N(Cc1cc(Cl)ccn1)[C@H](C(F)(F)F)CC2 | > 8.00 |

In: Entry under review: "CC(C)Oc1cc(N2CC[C@H](C(F)(F)F)n3c2nc(N2CCOC[C@H]2C)cc3=O)ccn1" . Reported pIC50?
Out: > 8.00

In: Entry under review: C[C@@H]1COCCN1c1cc(=O)n2c(n1)N(CC1CCCO1)[C@H](C(F)(F)F)CC2 (single isomer, unassigned) . Reported pIC50?
Out: > 8.00

* * *

target: recombinant Vps34 (Homo sapiens, UniProt Q8NEB9); assay: Phosphorylation of phosphatidylinositol (PI) by Vps34 in vitro, ADP detected by TR-FRET (HTRF Transcreener ADP); conditions: 10 μM ATP, 55 μg/ml PI, approximately 3 nM Vps34, 1 hour at ambient temperature; absolute IC50, mean of two independent experiments; read-out: IC50 activity range
Sequence (Q8NEB9 whole entry): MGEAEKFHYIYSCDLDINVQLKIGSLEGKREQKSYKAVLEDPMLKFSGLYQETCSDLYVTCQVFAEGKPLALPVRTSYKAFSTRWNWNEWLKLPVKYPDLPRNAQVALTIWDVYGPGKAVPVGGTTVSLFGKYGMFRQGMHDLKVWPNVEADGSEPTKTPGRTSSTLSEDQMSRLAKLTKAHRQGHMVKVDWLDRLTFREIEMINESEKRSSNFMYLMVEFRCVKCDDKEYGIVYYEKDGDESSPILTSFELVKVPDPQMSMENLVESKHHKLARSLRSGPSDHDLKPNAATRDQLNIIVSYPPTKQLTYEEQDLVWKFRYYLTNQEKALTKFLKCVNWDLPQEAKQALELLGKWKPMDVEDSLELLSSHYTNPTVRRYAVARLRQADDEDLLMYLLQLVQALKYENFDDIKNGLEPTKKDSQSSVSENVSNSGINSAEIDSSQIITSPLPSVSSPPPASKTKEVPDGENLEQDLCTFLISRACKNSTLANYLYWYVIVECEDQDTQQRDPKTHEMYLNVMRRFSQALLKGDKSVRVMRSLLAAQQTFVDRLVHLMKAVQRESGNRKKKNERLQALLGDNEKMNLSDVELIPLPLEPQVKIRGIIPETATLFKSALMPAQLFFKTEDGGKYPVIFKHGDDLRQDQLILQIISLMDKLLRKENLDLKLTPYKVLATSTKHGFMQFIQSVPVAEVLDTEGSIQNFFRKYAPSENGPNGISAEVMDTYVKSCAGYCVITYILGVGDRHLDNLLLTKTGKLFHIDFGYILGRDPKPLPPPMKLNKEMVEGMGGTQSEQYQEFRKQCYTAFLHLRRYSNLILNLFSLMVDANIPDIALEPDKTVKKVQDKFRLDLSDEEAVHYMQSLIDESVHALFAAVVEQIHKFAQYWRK
Measurement kind: IC50

Solved entries:
| Molecule | Tgt | IC50 |
| --- | --- | --- |
| Cc1nnc(CN2c3nc(N4CCOC[C@H]4C)cc(=O)n3CC[C@H]2C(F)(F)F)s1 [Example 123] | recombinant Vps34 (Homo sapiens, UniProt Q8NEB9) | 10 to 100 nM |
| Cc1noc(CN2c3nc(N4CCOC[C@H]4C)c(F)c(=O)n3C[C@@]2(C)C(F)(F)F)n1 [Example 207] | recombinant Vps34 (Homo sapiens, UniProt Q8NEB9) | < 10 nM |
| C[C@@H]1COCCN1c1cc(=O)n2c(n1)N(Cc1ncco1)[C@](C)(C(F)(F)F)CC2 [Example 239] | recombinant Vps34 (Homo sapiens, UniProt Q8NEB9) | < 10 nM |

Let us move to another entry and its IC50.
In: Entry under review: C[C@@H]1COCCN1c1cc(=O)n2c(n1)N(C/C(=N/O)C1CC1)[C@H](C(F)(F)F)CC2 (single isomer, unassigned) [Example 305] . Reported IC50?
Out: < 10 nM
